Tested on: Cabbage Looper [Trichoplusia ni (Hubner)]
Assay: Insecticide test, cabbage looper 3rd instar
Assay type: in vivo
Details: 48 h, 100 ppm, 2 days, 26.7° C., read-out: % kill, Cabbage Looper 3rd Instar
measured.property: mortality at 100 ppm (%)
The reply should contain only the number, in %.

# count of solved cases: 5
compound | assay.target | mortality at 100 ppm [%]
CC1(C)CN=C(NN=C(C=Cc2ccc(C(F)(F)F)cc2)C=Cc2ccc(C(F)(F)F)cc2)N(C(=O)c2ccccc2)C1 [drawing 35] | Cabbage Looper [Trichoplusia ni (Hubner)] | 100
CCCCCC(=O)N1CC(C)(C)CN=C1NN=C(C=Cc1ccc(C(F)(F)F)cc1)C=Cc1ccc(C(F)(F)F)cc1 [R1=CF3, R3=n-C5 H11] | Cabbage Looper [Trichoplusia ni (Hubner)] | 50
CCCCC(=O)N1CC(C)(C)CN=C1NN=C(C=Cc1ccc(C(F)(F)F)cc1)C=Cc1ccc(C(F)(F)F)cc1 [R1=CF3, R3=n-C4 H9] | Cabbage Looper [Trichoplusia ni (Hubner)] | 100
CC(=O)N1CCCCN=C1NN=C(C=Cc1ccc(C(F)(F)F)cc1)C=Cc1ccc(C(F)(F)F)cc1 | Cabbage Looper [Trichoplusia ni (Hubner)] | 100
CCCCCCCCCCCC(=O)N1CC(C)(C)CN=C1NN=C(C=Cc1ccc(C(F)(F)F)cc1)C=Cc1ccc(C(F)(F)F)cc1 [R1=CF3, R3=n-C11 H23] | Cabbage Looper [Trichoplusia ni (Hubner)] | 70

Attention now turns to another entry.
Incoming: Entry CCCCCCCCCCCCCCCC(=O)N1CC(C)(C)CN=C1NN=C(C=Cc1ccc(C(F)(F)F)cc1)C=Cc1ccc(C(F)(F)F)cc1 [R1=CF3, R3=n-C15 H31] : reported mortality at 100 ppm = ?
Outgoing: 60

---

Experiment: Solubility in soybean oil
Type: physicochemical
measured.property: Solubility in Soybean oil, In g/g of oil

Sample records with Solubility in Soybean oil, In g/g of oil:
compound | observed.value
CC(=O)N1CC(C)(C)CN=C1NN=C(C=Cc1ccc(C(F)(F)F)cc1)C=Cc1ccc(C(F)(F)F)cc1 [drawing 31] | 0.003 g/g of oil
CCCCCCCCCCCCCCCC(=O)N1CC(C)(C)CN=C1NN=C(C=Cc1ccc(C(F)(F)F)cc1)C=Cc1ccc(C(F)(F)F)cc1 [drawing 33] | 0.02 g/g of oil
CC1(C)CN=C(NN=C(C=Cc2ccc(C(F)(F)F)cc2)C=Cc2ccc(C(F)(F)F)cc2)NC1 | 0.001 g/g of oil

Kindly consider the entry below.
Incoming: Look up Solubility in Soybean oil, In g/g of oil for this compound: CC1(C)CN=C(NN=C(C=Cc2ccc(C(F)(F)F)cc2)C=Cc2ccc(C(F)(F)F)cc2)N(C(=O)c2ccccc2)C1 [drawing 32]
Outgoing: 0.004 g/g of oil

---

Below, each entry is listed alongside its reported mortality at 1000 ppm.
System: Southern Armyworm [Spodoptera eridania (Cramer)]
Test: whole plant or invertebrate
Format: in vivo
Conditions: 48 h, read-out: % kill, Southern Armyworm 3rd Instar
Write the value in % as a bare number.

These solved cases illustrate the format of a correct answer.
compound | u | mortality at 1000 ppm
CCCCC(=O)N1CC(C)(C)CN=C1NN=C(C=Cc1ccc(C(F)(F)F)cc1)C=Cc1ccc(C(F)(F)F)cc1 | % | 100
CCCCC(CC)C(=O)N1CC(C)(C)CN=C1NN=C(C=Cc1ccc(C(F)(F)F)cc1)C=Cc1ccc(C(F)(F)F)cc1 (stereo not shown) | % | 100
CC1(C)CN=C(NN=C(C=Cc2ccc(C(F)(F)F)cc2)C=Cc2ccc(C(F)(F)F)cc2)N(C(=O)C=Cc2ccccc2)C1 | % | 0

Here is another compound to look at.
Incoming: // returns reported mortality at 1000 ppm for input CC1(C)CN=C(NN=C(C=Cc2ccc(C(F)(F)F)cc2)C=Cc2ccc(C(F)(F)F)cc2)N(C(=O)c2ccc(C(C)(C)C)cc2)C1
Outgoing: 100
